Target: T1, FPN1-GFP (human, UniProt Q9NP59 1-571, A GFP reporter is fused to the C terminus of FPN1. Its letters are not given, so it is left out.)
T1 sequence: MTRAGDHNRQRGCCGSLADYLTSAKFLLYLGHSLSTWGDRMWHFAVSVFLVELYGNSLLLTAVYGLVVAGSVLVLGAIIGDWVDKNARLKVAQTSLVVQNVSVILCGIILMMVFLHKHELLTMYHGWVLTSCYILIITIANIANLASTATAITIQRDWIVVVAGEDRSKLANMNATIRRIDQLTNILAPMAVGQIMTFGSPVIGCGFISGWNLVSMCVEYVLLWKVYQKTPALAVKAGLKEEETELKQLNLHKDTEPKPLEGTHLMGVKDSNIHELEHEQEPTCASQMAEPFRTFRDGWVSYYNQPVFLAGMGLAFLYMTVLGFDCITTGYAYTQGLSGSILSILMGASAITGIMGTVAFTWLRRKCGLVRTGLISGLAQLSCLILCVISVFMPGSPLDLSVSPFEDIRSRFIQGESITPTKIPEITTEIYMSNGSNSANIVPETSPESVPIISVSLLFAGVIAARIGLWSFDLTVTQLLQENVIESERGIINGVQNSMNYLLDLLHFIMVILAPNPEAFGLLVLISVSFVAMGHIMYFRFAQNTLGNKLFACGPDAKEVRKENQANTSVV
Assay: cell-based or functional assay
Can you tell me Top % Inhibition (hepcidin-25-induced internalization and degradation of FPN1-GFP) for the items I'm about to list?
The answer is to be given in %; state only the numeric part.

Sure, the documented Top % Inhibition (hepcidin-25-induced internalization and degradation of FPN1-GFP) for Mab Combi11 (antibody, human IgG4 S228P, kappa, F234A L235A, V domains shown) VH: QVQLVQSGAEVKKPGSSVKVSCKASGYAFTSFLIEWVRQAPGQGLEWMGTSNPRTGRTKYKSKFRGRVTITADKSTSTAYMELSSLRSEDTAVYYCAREFFDYWGQGTTVTVSS VL: DIQMTQSPSSLSASVGDRVTITCRASKSISKYTAWYQQKPGKAPKLLIYAGSKRHWGVPSRFSGSGSGTDFTLTISSLQPEDFATYYCQQHNEYPYTFGGGTKVEIKR is 92.6

Sure, the documented Top % Inhibition (hepcidin-25-induced internalization and degradation of FPN1-GFP) for Mab 3D8 (antibody, human IgG4 S228P, kappa, F234A L235A, V domains shown) VH: QVQLVQSGAEVKKPGSSVKVSCKASGYAFTSFLIEWVRQAPGQGLEWMGTSNPRTGGTKYKEKFRGRVTITADKSTSTAYMELSSLRSEDTAVYYCAREFFDYWGQGTTVTVSS VL: DIQMTQSPSSLSASVGDRVTITCRASKSISKYTAWYQQKPGKAPKLLIYAGSKLHSGVPSRFSGSGSGTDFTLTISSLQPEDFATYYCQQHNEYPYTFGGGTKVEIKR is 86.8

Sure, the documented Top % Inhibition (hepcidin-25-induced internalization and degradation of FPN1-GFP) for Mab 1G9 (antibody, mouse IgG1, kappa, V domains shown) VH: QVQLKQSGAELVRPGTSVKVSCKASGYAFTSFLIEWLKQRPGQGLEWIGTINPRTGGTKYNEKFRGKATLTADKSSSTAYMQLNSLTSDDSAVYFCVREFFDYWGQGTSLTVSS VL: ETTVTQSPSYLAASPGETITINCRASKSISKYLAWFQEKPGKTNKLLIYAGSKLHSGIPSRFSGSGSGTDFTLTISSLEPEDFAMYYCFQHNEYPYTFGGGTKLELKR is 69

Sure, the documented Top % Inhibition (hepcidin-25-induced internalization and degradation of FPN1-GFP) for Mab L2.2-4 (antibody, human IgG4 S228P, kappa, F234A L235A, V domains shown) VH: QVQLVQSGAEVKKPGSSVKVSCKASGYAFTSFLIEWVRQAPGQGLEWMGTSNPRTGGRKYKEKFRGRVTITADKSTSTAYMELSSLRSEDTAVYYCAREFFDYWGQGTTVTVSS VL: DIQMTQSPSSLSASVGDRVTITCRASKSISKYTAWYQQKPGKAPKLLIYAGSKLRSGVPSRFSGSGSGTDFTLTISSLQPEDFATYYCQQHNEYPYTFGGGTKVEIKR is 81.6
